Target: recombinant human soluble γ2 δ3TCR-FC (wild type) (human) (UniProt B7Z8K6)
Assay: Luminex beads; TCR-hFc captured by goat anti-human Fc; antibody titrated
Measured Metric: EC50

Below are worked cases with known answers.
| Binder | Experimental Result |
| --- | --- |
| δ3-58 (antibody, V domains shown) VH: EVKLVESGGGLVQPGGSLKLSCAASGFTFSSYAMSWVRQTPEKRLEWVAYIRDGGGGTYYPDTVEGRFTISRDNAKNTLYLQMSSLKSEDTAMYYCARHPPMNDWFLYWGQGTLVTVSA VL: DIQMTQSPASLSVSVGETVTITCRASENIYSHLAWYQQKQGKSPQLLVYAATNLADGVPSRFSGSGSGTQYSLKINSLQSEDFGSYYCQHFWGTPYTFGGGTKLEIKR | 0.03 nM |
| δ3-31 (antibody, V domains shown) VH: DVQLQESGPDLVKPSQSLSLTCTVTGYSITSGYGWHWIRQFPGNKLEWMGYISFSGSNKYNPSLKSRISITRDTSKNQFFLQLNSVTTEDTATYYCANLDYWGQGTTLTVSS VL: DIQMTQRTSSLSASLGDRVTISCSASQDITNYLHWFQQKPDGTVKLLIYYTSTLHSGVPSRFSGSGSGTDYSLTISNLEPEDIATYYCQQYSKLPYTFGGGTKLEITR | 0.05 nM |
| δ3-23 (antibody, V domains shown) VH: EVQLQQSGAELVKPGASVKLSCTASGFNIRDTYMHWVKQRPEQGLEWIGRIDPANGNTKYDPKFRGKATITADTSSNTAYLQLSSLTSEGTAVYYCSEGIYFDYWGQGTTLTVSS VL: DILLTQSPAILSVSPGERVSFSCRASQNIGTIIHWYQQRANGSPRLLIKYASESISGIPSRFSGSGSGTDFTLSINSVESEDIADYYCQQSNSWPYTFGGGTKLEIKR | 0.04 nM |
| δ3-08 (antibody, V domains shown) VH: EEKLEESGGGLVQPGGSMKLSCVASGFIFSIYWMNWVRQSPEKGLEWVGQIRLKSDNYATHYAESVKGRFTISRDDSKSSVYLQMNNLRAEDTGIYYCMYYGSSYERFAYWGQGTLVTVSA VL: DIQMIQSPASLSVSVGETVTITCRASENIYSNLAWYQQKQGKSPQLLVYVATKLADGVPSRFSGSGSGTQYSLKINSLQSEDFGSYYCQHFWGTPPWTFGGGTKLEIK | 0.06 nM |

// next entry
Item: δ3-42 (antibody, V domains shown) VH: DVQLQESGPDLVKPSQSLSLTCTVTGYSITSGYNWHWIRQFPGNKLEWMGYIHYSGNTDYNPSLRSRISITRDTSKNQFFLHLNSVPTEDTATYYCARSGITTDWYFDVWGAGTTVTVSS VL: QIVLSQSPAILSASPGEKVTMTCRASSSVNYMHWYQQKPGSSPKPWIYATSNLASGVPARFSGSGSGTSYSLTISKVEAEDAATYYCQQWSSHQPTFGAGTKLELK | EC50: 0.05 nM
